Sourced from patent US5332811A

# TEST SYSTEM: Human DNA topoisomerase II
# PROTOCOL: DNA topoisomerase II assay (P4 unknotting reaction)
# Format: biochemical
# TEST PARAMETERS: Table 2; based on degree of inhibition at 10, 25, 50 and 100 μM; read-out: Inhibition of DNA Topoisomerase II Activity ID50
Please respond with reported pIC50 for every item in the list.
Numbers only, as −log10 of the molar value.

# example entries with known answers
[
  {
    "COMPOUND": "COc1cc(C2c3cc4c(cc3C(Nc3cccc(O)c3)C3COC(=O)C23)OCO4)cc(O)c1O (stereo not shown)",
    "pIC50": 5.00
  },
  {
    "COMPOUND": "COc1cc(C2c3cc4c(cc3C(Nc3ccccc3)C3COC(=O)C23)OCO4)cc(O)c1O (stereo not shown)",
    "pIC50": 4.60
  },
  {
    "COMPOUND": "COc1cc(C2c3cc4c(cc3C(Nc3ccc5c(c3)OCCO5)C3COC(=O)C23)OCO4)cc(O)c1O (stereo not shown)",
    "pIC50": 5.00
  }
]

Dear colleague, could you please provide pIC50 for the compounds listed below?
1. COC(=O)c1cccc(N[C@@H]2c3cc4c(cc3[C@@H](c3cc(O)c(O)c(OC)c3)[C@H]3C(=O)OC[C@@H]32)OCO4)c1
2. COc1cc(C2c3cc4c(cc3C(Nc3ccc(F)cc3)C3COC(=O)C23)OCO4)cc(O)c1O (stereo not shown)
3. COc1cc(C2c3cc4c(cc3C(Nc3ccc([N+](=O)[O-])cc3)C3COC(=O)C23)OCO4)cc(O)c1O (stereo not shown)
4. COc1cc(C2c3cc4c(cc3C(Nc3ccc(C#N)cc3)C3COC(=O)C23)OCO4)cc(O)c1O (stereo not shown)

output:
1. 6.00
2. 5.00
3. 5.00
4. 5.00

----------
# Test system: KB cells
# PROTOCOL: Cytotoxicity: 50% reduction in cell number of KB cells after three day incubation
# Format: cell-based
# TEST PARAMETERS: Homo sapiens, 72 h; Table 3; KB cells; three day incubation; read-out: Cytotoxicity ID50 KB
ASSAY METRIC: IC50 (nM)
Give bare numbers, in nM.

[
  {
    "SMILES ENTRY": "CCOC(=O)c1ccc(N[C@@H]2c3cc(O)c(O)cc3[C@@H](c3cc(OC)c(O)c(OC)c3)[C@H]3C(=O)OC[C@@H]32)cc1",
    "READOUT UNITS": "nM",
    "IC50": 780
  },
  {
    "SMILES ENTRY": "COc1cc2c(cc1OC)[C@@H](Nc1ccc(F)cc1)[C@H]1COC(=O)[C@@H]1[C@@H]2c1cc(OC)c(O)c(OC)c1",
    "READOUT UNITS": "nM",
    "IC50": 400
  },
  {
    "SMILES ENTRY": "COc1cc([C@@H]2c3cc(O)c(O)cc3[C@@H](Nc3ccc([N+](=O)[O-])cc3)[C@H]3COC(=O)[C@H]23)cc(OC)c1O",
    "READOUT UNITS": "nM",
    "IC50": 760
  }
]

# input for lookup
input: Field request: IC50 | item: `COc1cc([C@@H]2c3cc(O)c(O)cc3[C@@H](Nc3ccc(C#N)cc3)[C@H]3COC(=O)[C@H]23)cc(OC)c1O`
output: 1000
